Tested on: IGROV-1
assayProcedure: NCI tumour cell line growth inhibition, 48 h
The source made the active and inactive calls. Cut-off read from the data, not from the text of the source: active = GI50 up to about 1.1 µM and inactive = higher.
Listed here are compounds together with their documented GI50.

Record excerpt, results attached:
| compound | targetEntity | result |
| --- | --- | --- |
| Cc1cc(=O)n2c3c(c4c(cc13)c(CN(C)C)cc(=O)n4C)OC2 | IGROV-1 | 9.51 µM (inactive) |
| C[C@]12CCC(=O)C=C1CC[C@@H]1C2CC[C@]2(C)Nc3c(cnn3-c3ccccc3)CC12 (stereo not given in full) | IGROV-1 | > 100 µM (inactive) |
| CCOC(=O)CO/N=C\C1=CC(=O)C2CC1C2(C)C (stereo not given) | IGROV-1 | > 100 µM (inactive) |
| Cc1cc(C(=O)NCCN(C)C)c2nc3ccccc3cc2c1 | IGROV-1 | 2.39 µM (inactive) |
| Cn1c(=O)nc2n(-c3ccc(Cl)cc3)c3cc(Cl)ccc3nc-2c1=O | IGROV-1 | 1.6 µM (inactive) |
| CCC(=O)Nc1ccc(/N=N/N(C)C)cc1 | IGROV-1 | 2.87 µM (inactive) |
| Clc1ccc(C2NN=C3c4ccccc4OCC32)cc1 (stereo not given) | IGROV-1 | 3.2 µM (inactive) |
| COc1ccc(/C(=N\NC(=S)NN)C(c2ccc(OC)cc2)C2C(=O)Oc3ccccc32)cc1 (stereo not given) | IGROV-1 | > 10 µM (inactive) |

Task: I am curious: what GI50 value has been reported for [N-]=[N+]=Nc1ccc(S(=O)(=O)Oc2cc(OS(=O)(=O)c3ccc(N=[N+]=[N-])cc3)cc(OS(=O)(=O)c3ccc(N=[N+]=[N-])cc3)c2)cc1 ?
Output: > 100 µM (inactive)

Task: Also CCN(CC)CCCN(c1cc(OC)cc2nccnc12)S(=O)(=O)c1ccc(C)cc1 ?
Output: > 100 µM (inactive)
